# Test system: A36T virus (PA/A36T, A/PR/8/34 (H1N1))
# Type: cell-based, influenza A virus
MEASUREMENT_TYPE: pEC50
Interpret pEC50 as the negative base-10 log of the concentration measured in mol/L.

>>> meas_value("NC(=O)c1nc(F)c[nH]c1=O")
4.72

Could you now look at the following compound, please?
Request the reported pEC50 associated with O=C1c2c(O)c(=O)ccn2N([C@@H]2c3ccccc3SCc3c2ccc(F)c3F)[C@@H]2COCCN12
8.59
